assay: Solubility assessment, visually estimated by dosing solvent aliquots into 10.0 mg API; assay type: physicochemical; details: organic solvent or mixture, thermodynamic from solid; IPE, 40° C.; read-out: Solubility at 40° C.
OBSERVATION_TYPE: solubility

COMPOUND | READING
Cc1cnc(Nc2ccc(OCCN3CCCC3)cc2)nc1Nc1cccc(S(=O)(=O)NC(C)(C)C)c1 [Form A] | < 5000 µg/mL
